Test system: 786-0 renal
Assay: NCI-60 one-dose screen, 48 h
Conditions: 10 µM unless noted
Method: Cells are grown in 96 well plates and exposed to the test compound for 48 hours. Compounds are tested at a single concentration, which is 10^-5 M for most compounds. The reported endpoint is percent growth (GI% or GIPRCNT), where numbers from 0 - 100% represent growth inhibition, and numbers from -100% - 0 represent cell death. For example, a value of 40 represents 60% growth inhibition. A value of 0 means no net growth occurred over the course of the experiment. […]
The panel holds about 83,000 compounds, 20% with a hit somewhere; the sample as a whole holds those more often. Activity calls are given as the source filed them. Rule for the calls: active = growth percent below 10; inactive = the rest.
Classes used: active, inactive

- COMPOUND: "COc1ccc2nc3ccccc3c(NCc3ccc(C)cc3)c2c1"
  STUDY_TARGET: "786-0 renal"
  LABEL: "inactive"
- COMPOUND: "CCOC(=O)C1=C(C)NC(=S)NC1c1ccccc1 (stereo unspecified)"
  STUDY_TARGET: "786-0 renal"
  LABEL: "inactive"
- COMPOUND: "CCSc1cnnc2ccccc12"
  STUDY_TARGET: "786-0 renal"
  LABEL: "inactive"
- COMPOUND: "O=C(CSc1nc2c(n1Nc1ccccc1)-c1ccccc1SC2)Nc1nccs1"
  STUDY_TARGET: "786-0 renal"
  LABEL: "inactive"
- COMPOUND: "CC(=O)Cc1ccccn1"
  STUDY_TARGET: "786-0 renal"
  LABEL: "inactive"
- COMPOUND: "Clc1nnc2c3ccccc3ccn12"
  STUDY_TARGET: "786-0 renal"
  LABEL: "inactive"
- COMPOUND: "CC(C)CCC(=O)[C@@H](C)[C@H]1[C@@H](OC2OCC(O)C(O)C2NS(C)(=O)=O)C[C@H]2[C@@H]3CC=C4C[C@@H](O)CC[C@]4(C)[C@H]3CC[C@]12C (stereo partly specified)"
  STUDY_TARGET: "786-0 renal"
  LABEL: "active"
- COMPOUND: "C=C[C@H]1CCC/C=C/[C@@H]2C[C@H](O)C[C@H]2[C@H](O)/C=C/C(=O)O1"
  STUDY_TARGET: "786-0 renal"
  LABEL: "active"
- COMPOUND: "COc1ccc(-c2cnnn2-c2nonc2-n2cccc2)cc1"
  STUDY_TARGET: "786-0 renal"
  LABEL: "inactive"
- COMPOUND: "Cc1ccc(Nc2cc(Cl)c([N+](=O)[O-])cc2[N+](=O)[O-])cc1"
  STUDY_TARGET: "786-0 renal"
  LABEL: "inactive"
- COMPOUND: "O/N=C/c1ccncc1"
  STUDY_TARGET: "786-0 renal"
  LABEL: "inactive"

* * *

System: SK-MEL-2 melanoma
Assay: NCI-60 one-dose screen, 48 h (100 = growth as untreated, 0 = no growth, -100 = all killed)
Conditions: 10 µM unless noted
About 83,000 compounds went through this panel and 20% of them were active in at least one assay; those are over-represented in the sample as a whole.
METRIC_NAME: growth (%)

- COMPOUND: "Brc1ccsc1Br"
  VAL: 101
- COMPOUND: "CCCCCCCCCCCCCCCCCC(=O)[O][Sn]([CH2]CCC)([CH2]CCC)[CH2]CCC"
  VAL: -60.7
- COMPOUND: "COC(=O)c1ccc2c(c1)nc(-c1ccc(Cl)cc1)n2-c1cc(C(C)(C)C)[nH]n1"
  VAL: 31.6
- COMPOUND: "CC(C)(C)c1ccc(C(=O)Nc2sc3cc(O)ccc3c2C(N)=O)cc1"
  VAL: 114
- COMPOUND: "O=C(Nc1cccc(N=Cc2c(O)ccc3ccccc23)c1)c1ccccc1"
  VAL: 87.9
- COMPOUND: "c1coc(CNc2c3ccccc3nc3ccccc23)c1"
  VAL: 101
- COMPOUND: "CC(=O)c1ccc(Br)c([N+](=O)[O-])c1"
  VAL: 102
- COMPOUND: "CN1CCC2(CC1)N=C(SCC(=O)Nc1cnc3ccccc3c1)C(c1ccc(Br)cc1)=N2"
  VAL: -31.2
- COMPOUND: "COc1ccc(NC(=O)Cn2c(=O)sc3c(-c4ccc(Cl)cc4)cc(-c4ccc(Cl)cc4)nc32)cc1"
  VAL: 107
- COMPOUND: "CN1C(=O)N(C)C2C1NN=c1s/c(=C\\c3ccc(C(F)(F)F)cc3)c(=O)n12 (stereo not given)"
  VAL: 47.7
